Numbers sourced from the RNAGym collection of RNA variant scans (doi:10.7554/elife.90254).

B1: OR4K15 (parent)
chain: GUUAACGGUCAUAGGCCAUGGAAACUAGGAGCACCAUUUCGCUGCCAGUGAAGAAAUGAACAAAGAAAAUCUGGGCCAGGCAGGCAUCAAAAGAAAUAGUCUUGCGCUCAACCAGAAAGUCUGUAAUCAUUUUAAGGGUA

# Variants of: B1
# run_description: self-cleavage, relative activity (ratio to wild type); higher = more cleavage; in vitro, sequencing; the parent is a self-cleaving ribozyme
Is self-cleavage at least 0.4? Then condition met. If not, condition not met.

[[record]]
mutation_id = "A94G U131A"
class_name = "condition met"

[[record]]
mutation_id = "C88U A94G"
class_name = "condition met"

[[record]]
mutation_id = "A95U A117U"
class_name = "condition met"

[[record]]
mutation_id = "C32U A110G"
class_name = "condition not met"

[[record]]
mutation_id = "A90U A110U"
class_name = "condition met"

[[record]]
mutation_id = "A86G A140U"
class_name = "condition met"

[[record]]
mutation_id = "A18G G83A"
class_name = "condition met"

[[record]]
mutation_id = "A24U A54G"
class_name = "condition met"


Could you verify whether the entry A82U A98G shows self-cleavage of no less than 0.4?
condition not met

Quick check: does U57A U102C have self-cleavage greater than or equal to 0.4?
condition met

Hi, just wondering whether A27U A116G shows self-cleavage of 0.4 or higher.
condition met

Quick check, self-cleavage >= 0.4? U37C G137A
condition met

Kindly determine if self-cleavage recorded for U70C U108A is above or exactly 0.4.
condition not met

Kindly determine if self-cleavage recorded for G41U A117G is above or exactly 0.4.
condition met

Item A5C A36U with self-cleavage of 0.4 or above?
condition met

Does the reported self-cleavage for U38C A95G fall at or above the 0.4 mark?
condition met

Hello, I need to know if G80A U108C has measured self-cleavage not below 0.4. Thanks!
condition not met

Entry A13G A89C : is its self-cleavage no less than 0.4?
condition not met

Does the reported self-cleavage for A69U A78C fall at or above the 0.4 mark?
condition not met

Is self-cleavage for A5U A18G at or above 0.4?
condition met

Does self-cleavage meet or surpass 0.4 for U72C A86C ?
condition not met
